Hello, the source for this data is patent US20180230200A1, in case you need it.

Examples of binders with documented IC50, neutralization of TR infection of HUVEC follow.
# target entity: gH/gL/UL128/UL130/UL131A pentamer complex (PC) of HCMV strain TR virus (human cytomegalovirus strain TR)
# protocol text: cell-based or functional assay
Answer in ng/mL, number only, no unit symbol.

Examples with their reported IC50, neutralization of TR infection of HUVEC follow.
[in] Tell me the measured IC50, neutralization of TR infection of HUVEC of 1B2 (antibody, V domains shown, also called NAb 1B2) VH: EVQLVESGGVLVKPGGSLKLSCAASGFTFSDYYMYWVRQTPEKRLEWVATISDDGNYTNYPDSVKGRFTISRDNAKNNLYLQMSSLKSEDTAMYYCARGWLLPVFAYWGQGTLVTVSA VL: DIVLTQSPATLSVTPGDSVSLSCRASQSIGNNLHWYQQKSHESPRLLIKYTSQSISGIPSRFSGSGSGTDFTLNINSVETEDFGVYFCQQSNRWPWTFGGGTKLEIK , please.
[out] 0.7

[in] Tell me the measured IC50, neutralization of TR infection of HUVEC of 12E2 (antibody, V domains shown, also called NAb 12E2) VH: EVKLVESGGGLVQPGGSLKLSCATSGFTFSDYYMFWVRQTPEKKLEWVAYISNGGGSTYYPDTVKGRFTISRDNDKNTLYLQMSRLKSDDTALYYCVRPKRDFQYLYAMDYWGQGTSVTVSS VL: DIVLTQSPASLAVSLGQRATISCRASKSVSTSGYSYMHWYQQKPGQSPKLLIYLASNLESGVPARFSGSGSGTDFTLNIHPVEDEDAATYYCQHSRELPWTFGGGTKLEIK , please.
[out] 4.2

***
[in] Tell me the measured IC50, neutralization of TR infection of HUVEC of 21F6 (antibody, V domains shown, also called NAb 21F6) VH: QIQLVQSGPELKKPGETVKISCKASGYTFTSYGMNWVKQAPGKGLKWMGWINTYTGEPTYADDFKGRFAFSLETSASTAYLQINNLKNEDTATYFCAREHYYGINPLLGCWGQGTTLTVSS VL: DIQMTQTTSSLSASLGDRVTISCSASQGISNYLNWYQQKPDGTVKLLIYDTSSLHSGVPSRFSGSGSGTDYSLTISNLEPEDIATYYCQQYSKLPYTFGGGTKLEIK , please.
[out] 5.9
